Value source: the SangsterLogP compilation

experiment: method code SF-HPLC, from DOI: 10.1021/ac9902291
The reader will find reported logP values listed item by item below.

Structure smiles string | logP
c1ccc2c(c1)ccc1sccc12 | 4.41
Cc1cc2ccccc2s1 | 3.71
c1ccc2c(c1)ccc1sc3ccccc3c12 | 5.19
c1ccc2c(c1)ccc1c3ccsc3ccc21 | 5.35
